protocol.summary: Pharmacokinetics in rats
Type: in vivo, Sprague-Dawley rats
experimental.conditions: male, Sprague-Dawley, plasma; rat, IV 2 mg/kg; read-out: systemic clearance (converted)
measured.parameter: clearance (mL/min/kg)
Provide only the numeric value, understood in mL/min/kg.

# query: clearance of entry Cc1cc(C)cc(Nc2ccc([N+](=O)[O-])c(NCCN3CCOCC3)n2)c1 [Compound 4AZA2891]
132

----------
protocol.summary: Pharmacokinetics in rats
Type: in vivo, Sprague-Dawley rats
experimental.conditions: male, Sprague-Dawley, plasma; rat, IV 2 mg/kg; read-out: elimination half-life (converted)
measured.parameter: half-life (min)
State the answer as a number, implicitly in min.

Quick one: half-life for Cc1cc(C)cc(Nc2ccc([N+](=O)[O-])c(NCCN3CCOCC3)n2)c1 ?
48

----------
protocol.summary: Pharmacokinetics and tissue distribution in mice
Type: in vivo
experimental.conditions: female, mouse; CD1 mice, IV bolus 20 mg/kg, kidney; read-out: ratio of kidney AUC over plasma AUC
measured.parameter: Kp
// keep it numeric: no unit symbol after the value

Field request: Kp | item: Cc1cc(C)cc(Nc2ccc([N+](=O)[O-])c(NCCN3CCOCC3)n2)c1 [Compound 4AZA2891]
2.6

----------
protocol.summary: Pharmacokinetics in rats
Assay type: in vivo, Sprague-Dawley rats
experimental.conditions: male, Sprague-Dawley, plasma; rat, IV 2 mg/kg; read-out: volume of distribution at steady state
measured.parameter: Vd (L/kg)
Respond numerically; units are L/kg and should not be typed.

Could you share which Vd value was measured for Cc1cc(C)cc(Nc2ccc([N+](=O)[O-])c(NCCN3CCOCC3)n2)c1 [Compound 4AZA2891] ?
7.4

----------
protocol.summary: Pharmacokinetics and tissue distribution in mice
Type: in vivo
experimental.conditions: female, mouse; CD1 mice, IV bolus 20 mg/kg, brain; read-out: ratio of brain AUC over plasma AUC
measured.parameter: Kp

Fill in the blank: the reported Kp of Cc1cc(C)cc(Nc2ccc([N+](=O)[O-])c(NCCN3CCOCC3)n2)c1 is ____.
2.7

----------
Test system: primary cortical neurons
protocol.summary: Neurite outgrowth assay
Type: cell-based, Sprague-Dawley rat
experimental.conditions: Primary cortical neuron; rat primary cortical neurons, 72 hours; read-out: IC50 for branch point formation
Hi there, I'd appreciate the recorded IC50 for every entry that follows.
All answers are understood in nM, so give the number only.

I'd like to know its IC50. The compound in question is Cc1cc(C)cc(Nc2ccc([N+](=O)[O-])c(NCCN3CCOCC3)n2)c1 [Compound 4AZA2891]
8

Do the same for Cc1ccnc(Nc2ccc([N+](=O)[O-])c(NCCN3CCOCC3)n2)c1 [Compound 4AZA2996] please
7.4

Would you mind doing CC[C@]1(O)C[C@@H]2CN(CCc3c([nH]c4ccccc34)[C@@](C(=O)OC)(c3cc4c(cc3OC)N(C)[C@H]3[C@@](O)(C(=O)OC)[C@H](OC(C)=O)[C@]5(CC)C=CCN6CC[C@]43[C@@H]65)C2)C1 [vinblastine, reference compound] as well?
0.7

Cool, now CC[C@]1(O)C[C@H]2CN(CCc3c([nH]c4ccccc34)[C@@](C(=O)OC)(c3cc4c(cc3OC)N(C=O)[C@H]3[C@@](O)(C(=O)OC)[C@H](OC(C)=O)[C@]5(CC)C=CCN6CC[C@]43[C@@H]65)C2)C1 [vincristine, reference compound]
0.2

----------
protocol.summary: Pharmacokinetics and tissue distribution in mice
Assay type: in vivo
experimental.conditions: female, mouse; CD1 mice, IV bolus 20 mg/kg, plasma; read-out: volume of distribution at steady state
measured.parameter: Vd (L/kg)
Give the number; L/kg is assumed, so skip it.

Look up Vd: Cc1cc(C)cc(Nc2ccc([N+](=O)[O-])c(NCCN3CCOCC3)n2)c1 [Compound 4AZA2891]
5.7

----------
So I've got a bunch of compounds here, and I need their IC50 values.
System: MRC-5 cells
protocol.summary: 3-day MTS cell viability assay, MRC-5
Assay type: cell-based
experimental.conditions: Homo sapiens, MRC5, 72 hours, normal lung fibroblast cells, Fig 1C
Numeric only. Scale: µM

Returns the measured IC50 for the input compound. Input: Cc1cc(C)cc(Nc2ccc([N+](=O)[O-])c(NCCN3CCOCC3)n2)c1
29.6

Cc1ccnc(Nc2ccc([N+](=O)[O-])c(NCCN3CCOCC3)n2)c1 , same question.
23.3

----------
protocol.summary: Pharmacokinetics and tissue distribution in mice
Assay type: in vivo
experimental.conditions: female, mouse, plasma; CD1 mice, IV bolus 20 mg/kg; read-out: AUClast in plasma
Method: Female CD1 mice were purchased from Harlan (Harlan Netherlands BV) and 7–8 weeks old mice were injected intravenously (IV) with 20 mg/kg 4AZA2891 formulated at 2 mg/ml as described above. […] Every plasma and tissue sample was spiked with internal standard followed by the addition of 4 volumes of methanol. […] The supernatant was analyzed for the presence of 4AZA2891 using LC/MS/MS (Finnigan LCQ advantage Max (ion trap) mass spectrometer with Surveyor HPLC System (Thermo Finnigan)). […]
measured.parameter: AUC(0-t)

Which AUC(0-t) value belongs to Cc1cc(C)cc(Nc2ccc([N+](=O)[O-])c(NCCN3CCOCC3)n2)c1 ?
1290 ng·h/mL
